# System: COG-LL-319h;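 note: ALL cell lines in 384-well plates, five doses spanning 10,000-fold, each plate scaled between vehicle and 100 µmol/L benzalkonium chloride controls, sDSS an adapted area-under-curve metric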
# ASSAY METHOD TEXT: selective drug sensitivity score (sDSS, relative to normal bone marrow) (sDSS (score)); higher = more potent and effective on the cell line relative to normal bone marrow cells
# EXPERIMENTAL CONDITIONS: 72 h
Returns one of criterion met or criterion not met; criterion met when selective drug sensitivity score is >= 7.

// below: answered compounds
- COc1ccc(-c2nc(N3CCOCC3)c3sc(CN(C)c4ncc(C(=O)NO)cn4)cc3n2)cn1 [Fimepinostat (CUDC-907)] (top concentration 10000 nM): criterion not met
- O=C(c1ccc(F)c(F)c1Nc1ccc(I)cc1F)N1CC(O)([C@@H]2CCCCN2)C1 [Cobimetinib] (top concentration 1000 nM): criterion not met
- C[C@H](Nc1ncnc2[nH]cnc12)c1cc2ccc(F)cc2nc1-c1ccccn1 [AMG319] (top concentration 1000 nM): criterion met
- COc1ccc(CCc2nc3cc(-c4c(C)noc4C)ccc3n2C[C@H](C)N2CCOCC2)cc1Cl [SGC-CBP30] (top concentration 25000 nM): criterion met

Please check the record Cc1cc(Nc2cc(CN3CCOCC3)c3nc(C)c(Cc4ccc(Cl)cc4F)n3n2)n[nH]1 [Gandotinib] (top concentration 10000 nM) and state if its selective drug sensitivity score is at or above 7.
criterion met

Sourced from the supplement of paper PMC8967900
